Readout type: melting point (°C)
One number for each entry, in °C.

> print(dat)
                            smiles.entry  recorded.result
1    C=CCON=C1c2ccccc2-n2c1nc1ccccc1c2=O              163
2  NC(=O)NN=C1c2ccccc2-n2c1nc1ccccc1c2=O              266
3      CCON=C1c2ccccc2-n2c1nc1ccccc1c2=O              117

I need melting point for every entry listed below, if you could help.
1. O=c1c2ccccc2nc2n1-c1ccccc1C2=NNc1ccccc1
2. N#CCON=C1c2ccccc2-n2c1nc1ccccc1c2=O
3. CC(C)(C)ON=C1c2ccccc2-n2c1nc1ccccc1c2=O
4. O=c1c2ccccc2nc2n1-c1ccccc1C2=NOCc1c(F)c(F)c(F)c(F)c1F

A)
1. 223
2. 224
3. 229
4. 183

----------
test system: NF-κB/AP-1 transcriptional activity in THP-1Blue cells; test: LPS-induced NF-κB/AP-1 alkaline phosphatase reporter assay in THP-1Blue cells; type: cell-based; conditions: Homo sapiens; LPS 250 ng/ml, 24 h
pIC50: −log10 of the molar value.
Provide the reported pIC50 of each item.

Example entries and their recorded answers appear below.
> print(dat)
                               smiles.entry  recorded.result
1       C=CCON=C1c2ccccc2-n2c1nc1ccccc1c2=O             4.72
2  O=c1c2ccccc2nc2n1-c1ccccc1C2=NOCc1c(F)c(F)c(F)c(F)c1F           ≤ 4.30

Consider now this further compound.
Q) Report measured pIC50; entry is O=c1c2ccccc2nc2n1-c1ccccc1C2=NNc1ccccc1
A) ≤ 4.30

----------
Provide the reported Kd of each item.
molecular target: JNK3 (Homo sapiens); assay: KINOMEscan ATP site-dependent binding assay, JNK3; conditions: KINOMEscan; mixture of E/Z isomers; read-out: Binding affinity JNK3 Kd
One number for each entry, in nM.

Example entries and their recorded answers appear below.
> print(dat)
                                   compound      measured.target  recorded.result
1  CON=C1c2ccccc2-n2c1nc1ccccc1c2=O [Compound 1a]  JNK3 (Homo sapiens)             1400
2  CC(C)(C)ON=C1c2ccccc2-n2c1nc1ccccc1c2=O [Compound 1d]  JNK3 (Homo sapiens)             2300

Q) Report measured Kd; entry is CCON=C1c2ccccc2-n2c1nc1ccccc1c2=O [Compound 1b]
A) 1200

----------
Provide the reported Kd of each item.
biological target: JNK3 (Homo sapiens, UniProt P53779); assay: KINOMEscan ATP site-dependent binding assay, JNK3; details: KINOMEscan; mixture of E/Z isomers; read-out: Binding affinity JNK3 Kd
Sequence (P53779 whole entry): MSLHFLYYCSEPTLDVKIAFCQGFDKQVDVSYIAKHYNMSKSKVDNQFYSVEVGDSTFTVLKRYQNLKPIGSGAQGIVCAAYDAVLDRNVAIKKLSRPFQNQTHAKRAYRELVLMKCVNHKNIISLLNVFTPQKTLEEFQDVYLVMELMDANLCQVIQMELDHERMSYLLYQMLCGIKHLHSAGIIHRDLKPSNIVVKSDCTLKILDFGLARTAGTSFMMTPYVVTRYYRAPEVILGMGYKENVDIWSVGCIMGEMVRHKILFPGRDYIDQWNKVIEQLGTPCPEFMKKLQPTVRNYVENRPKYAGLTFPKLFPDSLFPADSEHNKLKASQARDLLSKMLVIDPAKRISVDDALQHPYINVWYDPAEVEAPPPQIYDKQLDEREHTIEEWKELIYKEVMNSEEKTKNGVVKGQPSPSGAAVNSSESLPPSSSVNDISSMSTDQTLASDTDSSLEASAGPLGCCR
Give bare numbers, in nM.

Example entries and their recorded answers appear below.
> print(dat)
                               smiles.entry  recorded.result
1       C=CCON=C1c2ccccc2-n2c1nc1ccccc1c2=O              850
2       N#CCON=C1c2ccccc2-n2c1nc1ccccc1c2=O             1500
3  O=c1c2ccccc2nc2n1-c1ccccc1C2=NOCc1ccccn1             1500

Consider now this further compound.
Q) Report measured Kd; entry is CC(=O)ON=C1c2ccccc2-n2c1nc1ccccc1c2=O
A) 180

----------
biological target: JNK2 (Homo sapiens, UniProt P45984); assay: KINOMEscan ATP site-dependent binding assay, JNK2; conditions: mixture of E/Z isomers, read-out: Binding affinity JNK2 Kd
Sequence (P45984 whole entry): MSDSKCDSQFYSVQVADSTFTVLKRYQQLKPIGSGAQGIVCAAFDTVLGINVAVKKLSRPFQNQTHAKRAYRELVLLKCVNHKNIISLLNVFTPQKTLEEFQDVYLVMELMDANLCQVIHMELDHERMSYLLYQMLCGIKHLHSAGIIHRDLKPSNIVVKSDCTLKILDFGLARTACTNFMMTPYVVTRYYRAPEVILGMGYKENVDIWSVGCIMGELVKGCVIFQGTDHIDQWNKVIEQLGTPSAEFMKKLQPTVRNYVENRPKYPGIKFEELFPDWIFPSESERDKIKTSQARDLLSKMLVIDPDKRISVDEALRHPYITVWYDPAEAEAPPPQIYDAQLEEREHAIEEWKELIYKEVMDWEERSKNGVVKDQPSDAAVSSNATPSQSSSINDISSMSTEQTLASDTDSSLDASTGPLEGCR
Readout type: pKd
Answers are plain numbers, as −log10 of the molar value.

> print(dat)
                               smiles.entry  recorded.result
1     CC(=O)ON=C1c2ccccc2-n2c1nc1ccccc1c2=O             6.31
2       C=CCON=C1c2ccccc2-n2c1nc1ccccc1c2=O             5.39
3  O=c1c2ccccc2nc2n1-c1ccccc1C2=NOCc1ccccn1             5.41
4          CON=C1c2ccccc2-n2c1nc1ccccc1c2=O             5.25
5   CC(C)(C)ON=C1c2ccccc2-n2c1nc1ccccc1c2=O             4.92

I need pKd for every entry listed below, if you could help.
1. CCON=C1c2ccccc2-n2c1nc1ccccc1c2=O
2. N#CCON=C1c2ccccc2-n2c1nc1ccccc1c2=O

A)
5.27
4.76

----------
Readout type: melting point (°C)
One number for each entry, in °C.

Example entries and their recorded answers appear below.
> print(dat)
                               smiles.entry   readout.type  recorded.result
1     CC(=O)ON=C1c2ccccc2-n2c1nc1ccccc1c2=O  melting point              262
2  O=c1c2ccccc2nc2n1-c1ccccc1C2=NOCc1ccc([N+](=O)[O-])cc1  melting point              219
3          CON=C1c2ccccc2-n2c1nc1ccccc1c2=O  melting point              218

Consider now this further compound.
Q) Report measured melting point; entry is O=c1c2ccccc2nc2n1-c1ccccc1C2=NOCc1ccccc1
A) 206
